Measured Ki (hMC5-R (Homo sapiens, UniProt P33032))
Positions of bridges follow the written chain, without caps; N, C: chain ends. Non-standard residues stand in square brackets, D forms with d. Residues, ends and D or L forms follow the SMILES beside them. 2Nal = N[C@@H](Cc1ccc2ccccc2c1)C(=O)O; d2Nal = N[C@H](Cc1ccc2ccccc2c1)C(=O)O
Give a bare numeral; the unit nM is implied.

The compound listed as CNC(=O)[C@@H]1CCCCNC(=O)C[C@H](NC(C)=O)C(=O)N[C@@H](Cc2c[nH]c3ccccc23)C(=O)N[C@H](Cc2ccc3ccccc3c2)C(=O)N[C@@H](CCCNC(=N)N)C(=O)N[C@@H](Cc2ccc3ccccc3c2)C(=O)N1 [Example 19] (Ac-DW[d2Nal]R[2Nal]K-NHMe; lactam 1-6) shows Ki equal to 6

----------
Positions of bridges follow the written chain, without caps; N, C: chain ends. Non-standard residues stand in square brackets, D forms with d. Residues, ends and D or L forms follow the SMILES beside them. 2Nal = N[C@@H](Cc1ccc2ccccc2c1)C(=O)O; d2Nal = N[C@H](Cc1ccc2ccccc2c1)C(=O)O; Nle = CCCC[C@H](N)C(=O)O
Measured pKi (UniProtKB P41968)
Sequence (P41968 whole entry): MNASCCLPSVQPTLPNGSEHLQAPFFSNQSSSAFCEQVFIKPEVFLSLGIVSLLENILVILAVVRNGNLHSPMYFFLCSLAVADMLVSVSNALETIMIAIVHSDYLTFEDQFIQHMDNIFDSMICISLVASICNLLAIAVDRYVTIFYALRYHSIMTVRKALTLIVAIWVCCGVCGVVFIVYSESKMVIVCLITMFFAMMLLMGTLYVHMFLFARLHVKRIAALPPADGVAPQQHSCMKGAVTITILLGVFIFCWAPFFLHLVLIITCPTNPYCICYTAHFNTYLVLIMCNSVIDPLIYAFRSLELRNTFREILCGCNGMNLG
In textbook form, pKi equals minus log to base ten of the concentration in mol/L.

Previously resolved entries follow.
>  <COMPOUND>
CCNC(=O)[C@@H]1CCCCNC(=O)C[C@H](NC(C)=O)C(=O)N[C@@H](Cc2c[nH]c3ccccc23)C(=O)N[C@H](Cc2ccc3ccccc3c2)C(=O)N[C@@H](CCCNC(=N)N)C(=O)N[C@@H](Cc2ccc3ccccc3c2)C(=O)N1 [Example 17] (Ac-DW[d2Nal]R[2Nal]K-NHEt; lactam 1-6)

>  <STUDY_TARGET>
UniProtKB P41968

>  <pKi>
9.00

$$$$
>  <COMPOUND>
CC(=O)N[C@H]1CC(=O)NCCCC[C@@H](C(=O)O)NC(=O)[C@H](Cc2ccc3ccccc3c2)NC(=O)[C@H](CCCNC(=N)N)NC(=O)[C@@H](Cc2ccc3ccccc3c2)NC(=O)[C@H](Cc2c[nH]c3ccccc23)NC1=O [Example 16] (Ac-DW[d2Nal]R[2Nal]K-OH; lactam 1-6)

>  <STUDY_TARGET>
UniProtKB P41968

>  <pKi>
8.00

$$$$
>  <COMPOUND>
CC(=O)N[C@H]1CC(=O)NCCCC[C@@H](C(=O)N(C)C)NC(=O)[C@H](Cc2ccc3ccccc3c2)NC(=O)[C@H](CCCNC(=N)N)NC(=O)[C@@H](Cc2ccc3ccccc3c2)NC(=O)[C@H](Cc2c[nH]c3ccccc23)NC1=O [Example 18] (Ac-DW[d2Nal]R[2Nal]K-NMe2; lactam 1-6)

>  <STUDY_TARGET>
UniProtKB P41968

>  <pKi>
9.00

$$$$
>  <COMPOUND>
CNC(=O)[C@@H]1CCCCNC(=O)C[C@H](NC(C)=O)C(=O)N[C@@H](Cc2c[nH]c3ccccc23)C(=O)N[C@H](Cc2ccc3ccccc3c2)C(=O)N[C@@H](CCCNC(=N)N)C(=O)N[C@@H](Cc2ccc3ccccc3c2)C(=O)N1 [Example 19] (Ac-DW[d2Nal]R[2Nal]K-NHMe; lactam 1-6)

>  <STUDY_TARGET>
UniProtKB P41968

>  <pKi>
8.52

$$$$
>  <COMPOUND>
CC(=O)N[C@H]1CC(=O)NCCCC[C@@H](C(=O)O)NC(=O)[C@H](Cc2ccc3ccccc3c2)NC(=O)[C@H](CCCNC(=N)N)NC(=O)[C@@H](Cc2ccc3ccccc3c2)NC(=O)[C@H](Cc2c[nH]cn2)NC1=O [Example 15] (Ac-DH[d2Nal]R[2Nal]K-OH; lactam 1-6)

>  <STUDY_TARGET>
UniProtKB P41968

>  <pKi>
8.22

$$$$

Summary: CCCC[C@H](NC(C)=O)C(=O)N[C@H]1CC(=O)NCCCC[C@@H](C(=O)O)NC(=O)[C@H](Cc2ccc3ccccc3c2)NC(=O)[C@H](CCCNC(=N)N)NC(=O)[C@@H](Cc2ccc3ccccc3c2)NC(=O)[C@H](Cc2c[nH]cn2)NC1=O [Example 12] (Ac-[Nle]DH[d2Nal]R[2Nal]K-OH; lactam 2-7) , UniProtKB P41968, pKi = 9.52

----------
Each item that follows carries a reported Ki.
Molecular target: MC1-R (B-16 mouse melanoma cells) (Mus musculus, UniProt Q01727)
Sequence (Q01727 whole entry): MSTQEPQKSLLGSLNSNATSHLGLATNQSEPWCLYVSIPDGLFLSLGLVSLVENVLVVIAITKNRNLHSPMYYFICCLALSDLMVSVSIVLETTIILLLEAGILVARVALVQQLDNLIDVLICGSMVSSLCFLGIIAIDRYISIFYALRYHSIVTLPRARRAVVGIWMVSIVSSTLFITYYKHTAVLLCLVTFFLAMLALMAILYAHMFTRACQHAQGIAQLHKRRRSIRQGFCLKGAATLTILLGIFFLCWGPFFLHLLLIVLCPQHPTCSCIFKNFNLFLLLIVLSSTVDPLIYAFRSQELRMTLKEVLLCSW
Positions of bridges follow the written chain, without caps; N, C: chain ends. Non-standard residues stand in square brackets, D forms with d. Residues, ends and D or L forms follow the SMILES beside them. 2Nal = N[C@@H](Cc1ccc2ccccc2c1)C(=O)O; d2Nal = N[C@H](Cc1ccc2ccccc2c1)C(=O)O; Nle = CCCC[C@H](N)C(=O)O
Give a bare numeral; the unit µM is implied.

>  <COMPOUND>
CNC(=O)[C@@H]1CCCCNC(=O)C[C@H](NC(C)=O)C(=O)N[C@@H](Cc2c[nH]c3ccccc23)C(=O)N[C@H](Cc2ccc3ccccc3c2)C(=O)N[C@@H](CCCNC(=N)N)C(=O)N[C@@H](Cc2ccc3ccccc3c2)C(=O)N1 [Example 19] (Ac-DW[d2Nal]R[2Nal]K-NHMe; lactam 1-6)

>  <ENDPOINT_UNIT>
µM

>  <RECORDED_RESULT>
0.643

$$$$
>  <COMPOUND>
CC(=O)N[C@H]1CC(=O)NCCCC[C@@H](C(=O)O)NC(=O)[C@H](Cc2ccc3ccccc3c2)NC(=O)[C@H](CCCNC(=N)N)NC(=O)[C@@H](Cc2ccc3ccccc3c2)NC(=O)[C@H](Cc2c[nH]c3ccccc23)NC1=O [Example 16] (Ac-DW[d2Nal]R[2Nal]K-OH; lactam 1-6)

>  <ENDPOINT_UNIT>
µM

>  <RECORDED_RESULT>
1.1

$$$$

Now consider the entry below.
The compound listed as CCCC[C@H](NC(C)=O)C(=O)N[C@H]1CC(=O)NCCCC[C@@H](C(=O)O)NC(=O)[C@H](Cc2ccc3ccccc3c2)NC(=O)[C@H](CCCNC(=N)N)NC(=O)[C@@H](Cc2ccc3ccccc3c2)NC(=O)[C@H](Cc2c[nH]cn2)NC1=O [Example 12] (Ac-[Nle]DH[d2Nal]R[2Nal]K-OH; lactam 2-7) shows Ki equal to 0.0002

----------
Each item that follows carries a reported Ki.
Molecular target: MC1-R (B-16 mouse melanoma cells) (Mus musculus, UniProt Q01727)
Positions of bridges follow the written chain, without caps; N, C: chain ends. Non-standard residues stand in square brackets, D forms with d. Residues, ends and D or L forms follow the SMILES beside them. 2Nal = N[C@@H](Cc1ccc2ccccc2c1)C(=O)O; d2Nal = N[C@H](Cc1ccc2ccccc2c1)C(=O)O; Nle = CCCC[C@H](N)C(=O)O
Give a bare numeral; the unit nM is implied.

Previously resolved entries follow.
>  <COMPOUND>
CCNC(=O)[C@@H]1CCCCNC(=O)C[C@H](NC(C)=O)C(=O)N[C@@H](Cc2c[nH]c3ccccc23)C(=O)N[C@H](Cc2ccc3ccccc3c2)C(=O)N[C@@H](CCCNC(=N)N)C(=O)N[C@@H](Cc2ccc3ccccc3c2)C(=O)N1 [Example 17] (Ac-DW[d2Nal]R[2Nal]K-NHEt; lactam 1-6)

>  <Ki (nM)>
194

$$$$
>  <COMPOUND>
CCCC[C@H](NC(C)=O)C(=O)N[C@H]1CC(=O)NCCCC[C@@H](C(=O)O)NC(=O)[C@H](Cc2ccc3ccccc3c2)NC(=O)[C@H](CCCNC(=N)N)NC(=O)[C@@H](Cc2ccc3ccccc3c2)NC(=O)[C@H](Cc2c[nH]c3ccccc23)NC1=O [Example 13] (Ac-[Nle]DW[d2Nal]R[2Nal]K-OH; lactam 2-7)

>  <Ki (nM)>
119

$$$$
>  <COMPOUND>
CC(=O)N[C@H]1CC(=O)NCCCC[C@@H](C(=O)O)NC(=O)[C@H](Cc2ccc3ccccc3c2)NC(=O)[C@H](CCCNC(=N)N)NC(=O)[C@@H](Cc2ccc3ccccc3c2)NC(=O)[C@H](Cc2c[nH]cn2)NC1=O [Example 15] (Ac-DH[d2Nal]R[2Nal]K-OH; lactam 1-6)

>  <Ki (nM)>
143

$$$$

Now consider the entry below.
Summary: CC(=O)N[C@H]1CC(=O)NCCCC[C@@H](C(=O)N(C)C)NC(=O)[C@H](Cc2ccc3ccccc3c2)NC(=O)[C@H](CCCNC(=N)N)NC(=O)[C@@H](Cc2ccc3ccccc3c2)NC(=O)[C@H](Cc2c[nH]c3ccccc23)NC1=O [Example 18] (Ac-DW[d2Nal]R[2Nal]K-NMe2; lactam 1-6) , MC1-R (B-16 mouse melanoma cells) (Mus musculus, UniProt Q01727), Ki = 107

----------
Biological target: hMC4-R (HEK-293 cells) (Homo sapiens)
Construct: expressed in transfected cells; host or cells: HEK-293
Sequence (P32245 whole entry): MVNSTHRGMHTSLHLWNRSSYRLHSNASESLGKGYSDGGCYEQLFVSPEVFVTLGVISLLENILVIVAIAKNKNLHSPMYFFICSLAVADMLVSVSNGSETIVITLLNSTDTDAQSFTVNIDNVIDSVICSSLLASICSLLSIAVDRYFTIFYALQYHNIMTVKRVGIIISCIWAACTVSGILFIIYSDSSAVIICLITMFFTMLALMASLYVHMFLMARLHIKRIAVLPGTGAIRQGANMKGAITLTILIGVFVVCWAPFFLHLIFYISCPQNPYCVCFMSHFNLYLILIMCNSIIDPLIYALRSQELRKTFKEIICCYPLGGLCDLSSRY
Assay: cAMP assay for agonist/antagonist status and functional antagonism, MC4-R
Type: cell-based
Conditions: cAMP assay
Positions of bridges follow the written chain, without caps; N, C: chain ends. Non-standard residues stand in square brackets, D forms with d. Residues, ends and D or L forms follow the SMILES beside them. 2Nal = N[C@@H](Cc1ccc2ccccc2c1)C(=O)O; d2Nal = N[C@H](Cc1ccc2ccccc2c1)C(=O)O; Nle = CCCC[C@H](N)C(=O)O
METRIC_NAME: agonist/antagonist status as to MC4-R

>  <MOLECULE>
CNC(=O)[C@@H]1CCCCNC(=O)C[C@H](NC(C)=O)C(=O)N[C@@H](Cc2c[nH]c3ccccc23)C(=O)N[C@H](Cc2ccc3ccccc3c2)C(=O)N[C@@H](CCCNC(=N)N)C(=O)N[C@@H](Cc2ccc3ccccc3c2)C(=O)N1 [Example 19] (Ac-DW[d2Nal]R[2Nal]K-NHMe; lactam 1-6)

>  <METRIC_NAME>
agonist/antagonist status as to MC4-R

>  <RECORDED_RESULT>
antagonist

$$$$
>  <MOLECULE>
CCNC(=O)[C@@H]1CCCCNC(=O)C[C@H](NC(C)=O)C(=O)N[C@@H](Cc2c[nH]c3ccccc23)C(=O)N[C@H](Cc2ccc3ccccc3c2)C(=O)N[C@@H](CCCNC(=N)N)C(=O)N[C@@H](Cc2ccc3ccccc3c2)C(=O)N1 [Example 17] (Ac-DW[d2Nal]R[2Nal]K-NHEt; lactam 1-6)

>  <METRIC_NAME>
agonist/antagonist status as to MC4-R

>  <RECORDED_RESULT>
antagonist

$$$$
>  <MOLECULE>
CCCC[C@H](NC(C)=O)C(=O)N[C@H]1CC(=O)NCCCC[C@@H](C(=O)O)NC(=O)[C@H](Cc2ccc3ccccc3c2)NC(=O)[C@H](CCCNC(=N)N)NC(=O)[C@@H](Cc2ccc3ccccc3c2)NC(=O)[C@H](Cc2c[nH]cn2)NC1=O [Example 12] (Ac-[Nle]DH[d2Nal]R[2Nal]K-OH; lactam 2-7)

>  <METRIC_NAME>
agonist/antagonist status as to MC4-R

>  <RECORDED_RESULT>
antagonist

$$$$

The origin of these recorded values is patent US7342089B2.
